Biological target: Trehalase (Rattus norvegicus, UniProt O70282)
Sequence (O70282 whole entry): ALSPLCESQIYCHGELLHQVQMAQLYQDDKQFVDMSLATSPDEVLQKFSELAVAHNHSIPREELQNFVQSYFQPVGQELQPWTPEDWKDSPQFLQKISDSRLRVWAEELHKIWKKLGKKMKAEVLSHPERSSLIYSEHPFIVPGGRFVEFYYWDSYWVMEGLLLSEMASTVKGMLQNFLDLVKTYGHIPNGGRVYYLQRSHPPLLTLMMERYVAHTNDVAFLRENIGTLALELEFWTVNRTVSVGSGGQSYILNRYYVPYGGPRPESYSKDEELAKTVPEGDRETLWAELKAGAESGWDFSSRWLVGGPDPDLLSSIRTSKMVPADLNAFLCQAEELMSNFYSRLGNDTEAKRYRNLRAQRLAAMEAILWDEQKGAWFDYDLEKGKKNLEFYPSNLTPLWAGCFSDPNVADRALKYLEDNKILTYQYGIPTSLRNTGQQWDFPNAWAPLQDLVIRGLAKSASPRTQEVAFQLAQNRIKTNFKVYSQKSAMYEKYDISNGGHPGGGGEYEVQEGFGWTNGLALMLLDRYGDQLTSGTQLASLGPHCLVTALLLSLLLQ
QUANTITY NAME: pIC50
Reminder that pIC50 means the negative base-10 logarithm of the concentration expressed in mol/L.

The reported pIC50 of the molecule OCC1=C[C@H](N[C@H]2C[C@H](CO)[C@@H](O)[C@H](O)[C@H]2O)[C@H](O)[C@@H](O)[C@@H]1O [VALIDOXYLAMINE A] was 8.31
